- Test system: 843782-103-R-J1-PDC complex spheroid viability
- assay-method-text: Anticancer human tumor 843782-103-R-J1-PDC patient-derived lung adenocarcinoma cell line growth inhibition [RAS]; active = viability on the fitted dose curve at most 10% of control; inactive = the rest
- condition-parameters: second compound 0.003 µM; first compound 1 µM
Respond only with the outcome that fits, drawn from yes = active, no = inactive

In: Tell me the recorded outcome of this test for C[C@@H](NC(=O)c1ncnc(N)c1Cl)c1ncc(C(=O)Nc2cc(C(F)(F)F)c(Cl)cn2)s1 + CCn1c(-c2cccnc2C(C)OC)c2c3cc(ccc31)N1CCOC(CC(NC(=O)C(C(C)C)N(C)C(=O)C3(F)CCN(C(=O)C#CC(C)(C)N(C)C)CC3)C(=O)N3CCCC(N3)C(=O)OCC(C)(C)C2)C1 .
Out: no

In: # repeat for CC(=O)OC12COC1CC(O)C1(C)C(=O)C(O)C3=C(C)C(OC(=O)C(O)C(NC(=O)OC(C)(C)C)c4ccccc4)CC(O)(C(OC(=O)c4ccccc4)C21)C3(C)C (centres undefined) + CCn1c(-c2cc(N3CCN(C)CC3)cnc2C(C)OC)c2c3cc(ccc31)-c1csc(n1)CC(NC(=O)C1CC1C)C(=O)N1CCCC(N1)C(=O)OCC(C)(C)C2
Out: yes

In: # repeat for NC1c2ccccc2OC12CCN(c1cnc3c(N4CCCc5ncccc54)n[nH]c3n1)CC2 (centres undefined) + CCn1c(-c2cccnc2C(C)OC)c2c3cc(ccc31)N1CCOC(CC(NC(=O)C(C(C)C)N(C)C(=O)C3(F)CCN(C(=O)C#CC(C)(C)N(C)C)CC3)C(=O)N3CCCC(N3)C(=O)OCC(C)(C)C2)C1
Out: no

In: # repeat for CC(C)NCC(C(=O)N1CCN(c2ncnc3c2C(C)CC3O)CC1)c1ccc(Cl)cc1 (centres undefined) + CCn1c(-c2cccnc2C(C)OC)c2c3cc(ccc31)N1CCOC(CC(NC(=O)C(C(C)C)N(C)C(=O)C3(F)CCN(C(=O)C#CC(C)(C)N(C)C)CC3)C(=O)N3CCCC(N3)C(=O)OCC(C)(C)C2)C1
Out: no

----------
- System: 843782-103-R-J1-PDC complex spheroid viability
- assay-method-text: Anticancer human tumor 843782-103-R-J1-PDC cell line growth inhibition [RAS];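 also: viability read after seven days of compound exposure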
- condition-parameters: second compound 10 µM; first compound 1 µM; active compounds read low
Please note: viability, T/C exactly at 30% is Criterion not met. Only values below 30% get Criterion met.

1) CC(=O)OC12COC1CC(O)C1(C)C(=O)C(O)C3=C(C)C(OC(=O)C(O)C(NC(=O)OC(C)(C)C)c4ccccc4)CC(O)(C(OC(=O)c4ccccc4)C21)C3(C)C (stereo not given) + C#Cc1c(F)ccc2cc(O)cc(-c3ncc4c(N5CC6CCC(C5)N6)nc(OCC56CCCN5CC(F)C6)nc4c3F)c12
Criterion met
2) Nc1ccn(C2OC(CO)C(O)C2(F)F)c(=O)n1 (stereo not given) + C#Cc1c(F)ccc2cc(O)cc(-c3ncc4c(N5CC6CCC(C5)N6)nc(OCC56CCCN5CC(F)C6)nc4c3F)c12
Criterion met
3) CCC(CC)c1cc(NC2CCC(N)C2)n2nccc2n1 (stereo not given) + C#Cc1c(F)ccc2cc(O)cc(-c3ncc4c(N5CC6CCC(C5)N6)nc(OCC56CCCN5CC(F)C6)nc4c3F)c12
Criterion not met
4) CC1(O)CCCC1n1c(=O)c(C(F)F)cc2cnc(NC3CCN(S(C)(=O)=O)CC3)nc21 (stereo not given) + C#Cc1c(F)ccc2cc(O)cc(-c3ncc4c(N5CC6CCC(C5)N6)nc(OCC56CCCN5CC(F)C6)nc4c3F)c12
Criterion met

In: Given C=CC(=O)Nc1cc(Nc2nccc(-c3cn(C)c4ccccc34)n2)c(OC)cc1N(C)CCN(C)C + C#Cc1c(F)ccc2cc(O)cc(-c3ncc4c(N5CC6CCC(C5)N6)nc(OCC56CCCN5CC(F)C6)nc4c3F)c12 , is recorded viability, T/C strictly lower than 30%?
Out: Criterion met

In: # repeat for CC(Nc1ccc2c(c1)OCCn1cc(N3C(=O)OCC3C(F)F)nc1-2)C(N)=O (stereo not given) + C#Cc1c(F)ccc2cc(O)cc(-c3ncc4c(N5CC6CCC(C5)N6)nc(OCC56CCCN5CC(F)C6)nc4c3F)c12
Out: Criterion met

In: # repeat for NC1c2ccccc2OC12CCN(c1cnc3c(N4CCCc5ncccc54)n[nH]c3n1)CC2 (stereo not given) + C#Cc1c(F)ccc2cc(O)cc(-c3ncc4c(N5CC6CCC(C5)N6)nc(OCC56CCCN5CC(F)C6)nc4c3F)c12
Out: Criterion met

In: # repeat for CCN1CCN(Cc2ccc(Nc3ncc(F)c(-c4cc(F)c5nc(C)n(C(C)C)c5c4)n3)nc2)CC1 + C#Cc1c(F)ccc2cc(O)cc(-c3ncc4c(N5CC6CCC(C5)N6)nc(OCC56CCCN5CC(F)C6)nc4c3F)c12
Out: Criterion met

In: # repeat for C[C@@H](NC(=O)c1ncnc(N)c1Cl)c1ncc(C(=O)Nc2cc(C(F)(F)F)c(Cl)cn2)s1 + C#Cc1c(F)ccc2cc(O)cc(-c3ncc4c(N5CC6CCC(C5)N6)nc(OCC56CCCN5CC(F)C6)nc4c3F)c12
Out: Criterion not met

In: # repeat for C=CC(=O)N1CCN(c2nc(OCC3CCCN3C)nc3c(F)c(-c4nc(N)cc(C)c4C(F)(F)F)c(Cl)cc23)C(C)C1 (stereo not given) + C#Cc1c(F)ccc2cc(O)cc(-c3ncc4c(N5CC6CCC(C5)N6)nc(OCC56CCCN5CC(F)C6)nc4c3F)c12
Out: Criterion not met
